Biological target: HPK1 (MAP4K1) (Homo sapiens)
Test: FRET Assay for HPK1 (MAP4K1): one step binding assay, displacement of labeled tracer
Conditions: 10 μM compound; FRET ratio 665/620, percent of control
readout-label: inhibition at 10 µM (%)

[
  {
    "chemical-string": "COc1ccncc1-c1cc2c(cn1)NC(=O)/C2=C(/C)Nc1ccn(C)n1",
    "measured-value": 75.3
  },
  {
    "chemical-string": "C/C(Nc1cnn(C)c1)=C1/C(=O)Nc2cnc(-c3cncc(N)c3C)cc21",
    "measured-value": 84.2
  },
  {
    "chemical-string": "C/C(Nc1ccn(CC2(O)CC2)n1)=C1/C(=O)Nc2cnc(-c3cnccc3C)cc21",
    "measured-value": 76.7
  },
  {
    "chemical-string": "C/C(Nc1cnn(C(C)(C)C#N)c1)=C1/C(=O)Nc2cnc(-c3cnccc3C)cc21",
    "measured-value": 85.4
  }
]

====

Target: HPK1 (MAP4K1) (Homo sapiens, UniProt Q92918)
Sequence (Q92918 whole entry): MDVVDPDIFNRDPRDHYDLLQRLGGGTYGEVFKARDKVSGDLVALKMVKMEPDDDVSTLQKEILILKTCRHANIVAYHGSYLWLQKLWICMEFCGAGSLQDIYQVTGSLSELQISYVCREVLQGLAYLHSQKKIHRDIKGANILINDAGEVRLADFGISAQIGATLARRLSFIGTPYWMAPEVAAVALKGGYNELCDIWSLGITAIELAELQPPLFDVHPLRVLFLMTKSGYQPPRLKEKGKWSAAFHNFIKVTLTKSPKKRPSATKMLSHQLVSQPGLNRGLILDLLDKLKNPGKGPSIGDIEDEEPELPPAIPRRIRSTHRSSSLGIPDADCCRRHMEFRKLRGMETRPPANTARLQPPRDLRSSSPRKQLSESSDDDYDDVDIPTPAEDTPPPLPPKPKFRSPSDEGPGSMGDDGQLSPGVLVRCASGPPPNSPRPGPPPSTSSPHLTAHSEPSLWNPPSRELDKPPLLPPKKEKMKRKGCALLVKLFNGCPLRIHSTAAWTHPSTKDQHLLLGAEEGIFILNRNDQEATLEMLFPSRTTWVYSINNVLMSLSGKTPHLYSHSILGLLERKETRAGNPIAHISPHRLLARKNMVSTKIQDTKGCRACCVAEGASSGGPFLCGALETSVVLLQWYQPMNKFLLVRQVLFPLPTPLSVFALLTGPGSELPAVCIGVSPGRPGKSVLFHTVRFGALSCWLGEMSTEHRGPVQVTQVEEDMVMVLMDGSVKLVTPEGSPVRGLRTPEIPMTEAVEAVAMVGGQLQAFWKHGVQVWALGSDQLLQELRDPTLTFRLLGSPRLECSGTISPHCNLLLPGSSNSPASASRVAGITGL
Assay: FRET Assay for HPK1 (MAP4K1): one step binding assay, displacement of labeled tracer
Settings: 1 μM compound; FRET ratio 665/620, percent of control
readout-label: inhibition at 1 µM (%)

Sample records with inhibition at 1 µM:
[
  {
    "chemical-string": "C/C(Nc1ccn(CC(C)(C)O)n1)=C1/C(=O)Nc2cnc(-c3c(C)cccc3F)cc21",
    "system-name": "HPK1 (MAP4K1) (Homo sapiens, UniProt Q92918)",
    "inhibition at 1 µM [%]": 80
  },
  {
    "chemical-string": "C/C(Nc1cc2n(n1)CCOC2)=C1/C(=O)Nc2cnc(-c3cc(F)ccc3C)cc21",
    "system-name": "HPK1 (MAP4K1) (Homo sapiens, UniProt Q92918)",
    "inhibition at 1 µM [%]": 77.7
  },
  {
    "chemical-string": "C/C(Nc1cn[nH]c1)=C1/C(=O)Nc2cnc(-c3cnccc3C)cc21",
    "system-name": "HPK1 (MAP4K1) (Homo sapiens, UniProt Q92918)",
    "inhibition at 1 µM [%]": 83.3
  },
  {
    "chemical-string": "C/C(Nc1ccn(C2COC2)n1)=C1/C(=O)Nc2cnc(-c3cnccc3C)cc21",
    "system-name": "HPK1 (MAP4K1) (Homo sapiens, UniProt Q92918)",
    "inhibition at 1 µM [%]": 70.3
  },
  {
    "chemical-string": "C/C(Nc1cc(C)n(C[C@H](C)O)n1)=C1/C(=O)Nc2cnc(-c3cnccc3C)cc21",
    "system-name": "HPK1 (MAP4K1) (Homo sapiens, UniProt Q92918)",
    "inhibition at 1 µM [%]": 70.3
  },
  {
    "chemical-string": "C/C(Nc1ccn(CC[C@H](C)O)n1)=C1/C(=O)Nc2cnc(-c3cnccc3C)cc21",
    "system-name": "HPK1 (MAP4K1) (Homo sapiens, UniProt Q92918)",
    "inhibition at 1 µM [%]": 65
  },
  {
    "chemical-string": "CC/C(Nc1cnn(C(C)(C)C#N)c1)=C1/C(=O)Nc2cnc(-c3cnccc3C)cc21",
    "system-name": "HPK1 (MAP4K1) (Homo sapiens, UniProt Q92918)",
    "inhibition at 1 µM [%]": 79.7
  },
  {
    "chemical-string": "C/C(Nc1cnn(C(C)C)c1)=C1/C(=O)Nc2cnc(-c3cnccc3C)cc21",
    "system-name": "HPK1 (MAP4K1) (Homo sapiens, UniProt Q92918)",
    "inhibition at 1 µM [%]": 77.3
  },
  {
    "chemical-string": "C/C(Nc1nn(C)c2ccccc12)=C1/C(=O)Nc2cnc(-c3cnccc3C)cc21",
    "system-name": "HPK1 (MAP4K1) (Homo sapiens, UniProt Q92918)",
    "inhibition at 1 µM [%]": 72.6
  },
  {
    "chemical-string": "C/C(Nc1ccc(N2CCNCC2)cc1)=C1/C(=O)Nc2cnc(-c3cnccc3C)cc21",
    "system-name": "HPK1 (MAP4K1) (Homo sapiens, UniProt Q92918)",
    "inhibition at 1 µM [%]": 71
  }
]

A: COc1cccc(F)c1-c1cc2c(cc1F)NC(=O)/C2=C(/C)Nc1cnn(C)c1
B: C/C(NCCN1CCOCC1)=C1/C(=O)Nc2cnc(-c3cnccc3C)cc21
C: C/C(Nc1ccn(C2CCOCC2)n1)=C1/C(=O)Nc2cnc(-c3cnccc3C)cc21
In: Order field: inhibition at 1 µM | Direction: descending (largest first) Reply with the item labels sorted in the order that was asked for.
Out: A, B, C
(A: 88.8%, B: 51.5%, C: 27.7%)
